Across several publications, the following IC50 results were reported for HPK1 (Homo sapiens (Human)).

Check out these entries, answers already filled in.
[[record]]
compound = "CN(C)Cc1nc(Nc2ccc(-c3cnc4cc(F)ccn34)c3c2C(=O)NC3)ccc1N1CCOC(C)(C)C1=O"
system = "HPK1 (Homo sapiens (Human))"
assay_readout = "IC50"
value_observed = "≤ 100 nM"

[[record]]
compound = "COc1cc2c(cc1Nc1ncc(C(N)=O)c(N[C@@H](C)C3CCCCC3)n1)CN(C)CC2"
system = "HPK1 (Homo sapiens (Human))"
assay_readout = "IC50"
value_observed = "12 nM"

[[record]]
compound = "CN1CCN(c2ccc3nc(-c4c(N[C@@H]5CC[C@@H](O)C5)c5ccsc5[nH]c4=O)[nH]c3c2)CC1 (relative stereo)"
system = "HPK1 (Homo sapiens (Human))"
assay_readout = "IC50"
value_observed = "≤ 50 nM"


(Q) Enter reported IC50 observed with HPK1 (Homo sapiens (Human)) for `CNc1ncc2c(n1)N1CCN=C1C(c1cc(NC(=O)c3cn(C(C)C)c(=O)n(-c4ccc(F)cc4)c3=O)ccc1C)=C2`
Sequence (Q92918 whole entry): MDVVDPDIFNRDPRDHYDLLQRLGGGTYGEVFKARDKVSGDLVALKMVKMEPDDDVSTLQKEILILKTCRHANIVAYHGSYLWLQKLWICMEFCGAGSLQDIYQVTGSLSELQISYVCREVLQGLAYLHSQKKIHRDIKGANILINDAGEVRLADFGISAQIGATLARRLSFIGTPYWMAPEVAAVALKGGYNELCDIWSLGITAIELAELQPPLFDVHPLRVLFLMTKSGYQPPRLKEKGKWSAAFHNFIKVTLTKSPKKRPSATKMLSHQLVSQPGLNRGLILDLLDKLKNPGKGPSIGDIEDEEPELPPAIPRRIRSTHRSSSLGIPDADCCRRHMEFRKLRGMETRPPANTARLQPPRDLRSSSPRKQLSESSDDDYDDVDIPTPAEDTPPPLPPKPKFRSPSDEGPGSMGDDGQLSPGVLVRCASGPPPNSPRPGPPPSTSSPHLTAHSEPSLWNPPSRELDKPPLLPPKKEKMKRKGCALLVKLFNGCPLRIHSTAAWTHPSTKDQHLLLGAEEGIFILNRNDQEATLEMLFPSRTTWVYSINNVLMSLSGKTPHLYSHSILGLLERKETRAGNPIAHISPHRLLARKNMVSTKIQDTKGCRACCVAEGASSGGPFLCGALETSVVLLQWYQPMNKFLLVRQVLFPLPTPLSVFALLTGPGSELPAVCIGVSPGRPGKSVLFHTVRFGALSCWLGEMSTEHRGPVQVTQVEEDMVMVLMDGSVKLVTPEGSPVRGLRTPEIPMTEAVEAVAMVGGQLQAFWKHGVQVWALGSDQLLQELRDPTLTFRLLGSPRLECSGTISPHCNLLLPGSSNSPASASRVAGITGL
(A) 100 to 10000 nM

(Q) Same for `CC(C)(O)[C@H]1CN(c2ccc(Nc3ccc(-c4cnc5cnccn45)c4c3C(=O)NC4)nc2)CCO1`
(A) < 100 nM

(Q) Same for `O=c1[nH]ccc2nc(N3CCCC3)cc(Nc3ccc(N4CCC(O)CC4)cn3)c12`
(A) 100 to 1000 nM

(Q) Same for `Cc1ncccc1Nc1ncc2c(N)c(F)c(-c3cnc4c(c3C)NCCO4)cc2n1`
(A) 0.669 nM

---

Across several publications, the following IC50 results were reported for HPK1 (Homo sapiens (Human)).

(Q) If you can, please state the reported IC50 value of `Cc1cc(-c2c[nH]c3ncc(-c4cc(C)c5c(c4)CN(CCC(=O)N[C@@H]4CCCOC4)CC5)nc23)ccc1C(=O)N(C)C` .
(A) 78 nM

(Q) Same for CN1CCN2c3ccc(-c4n[nH]c5cc(C#N)c(-c6c(F)cc(NC(=O)CN7CCCC7)cc6F)cc45)cc3OCC2C1 (stereo not shown)
(A) ≤ 10 nM

(Q) Same for `CN1CCc2ccc(Nc3ncc4c(N)c(F)c(-c5cnc6c(c5Cl)NCCO6)cc4n3)cc2C1`
(A) 0.0474 nM

(Q) Same for CN1CCN2c3ccc(-c4n[nH]c5cc(C#N)c(-c6c(F)cc7c(c6F)CC(N)CC7)cc45)cc3OCC2C1 (stereo not shown)
(A) ≤ 10 nM

(Q) Same for `O=C1NCc2c(-c3cnc4cc(Cl)ccn34)ccc(Nc3ccc(N4CCC(O)CC4)cn3)c21`
(A) < 100 nM

(Q) Same for `Cc1cccc(F)c1-n1nc2c(-c3ccc(N4CCN(C5CC5)CC4)cc3)n[nH]c2cc1=O`
(A) 50 to 500 nM

(Q) Same for `O=c1[nH]ccc2nc(-c3cc(C4CC4)ccc3F)cc(Nc3ccc(N4CCC(O)CC4)cn3)c12`
(A) ≤ 100 nM

---

Across several publications, the following pIC50 results were reported for HPK1 (Homo sapiens (Human), UniProt Q92918).
pIC50: −log10 of the molar value.

Check out these entries, answers already filled in.
[[record]]
input_smiles = "C[C@H](c1ccc(Nc2ccc(-c3cnc4cc(F)ccn34)c3c2C(=O)NC3)nc1)N(C)C"
assay_readout = "pIC50"
value_observed = "> 7.00"

[[record]]
input_smiles = "CN1CCN(c2ccc3nc(-c4c(NCc5ccncc5)c5sccc5[nH]c4=O)[nH]c3c2)CC1"
assay_readout = "pIC50"
value_observed = "≥ 7.30"

[[record]]
input_smiles = "C/C(Nc1ncc(C)s1)=C1/C(=O)Nc2cnc(-c3c(C)cccc3F)cc21"
assay_readout = "pIC50"
value_observed = "> 7.30"

[[record]]
input_smiles = "COc1cc(C)ccc1Nc1ncc2c(N)c(F)c(-c3cnc4c(c3C)NCCO4)cc2n1"
assay_readout = "pIC50"
value_observed = 8.39

[[record]]
input_smiles = "O=C(Nc1ccc(-c2cc(Nc3ccc(C(=O)N4CCCC4)cc3)c3c(=O)[nH]ccc3n2)c(F)c1)C1CCCCC1"
assay_readout = "pIC50"
value_observed = "≥ 7.00"


(Q) If you can, please state the reported pIC50 value of `COc1ccc(NC(=O)CCN2CCc3c(C)cc(-c4cnc5[nH]cc(-c6ccc(C(=O)N(C)C)c(C)c6)c5n4)cc3C2)cc1` .
(A) 7.59

(Q) Same for `Cc1cc(-c2cnc(N)c(Oc3cnn(C(C)C)c3)n2)cc2c1CCN(C)C2`
(A) 8.08

(Q) Same for `C/C(Nc1cc(C)n(CC(F)F)n1)=C1/C(=O)Nc2cnc(-c3cc(F)ccc3C)cc21`
(A) > 7.30

(Q) Same for `COc1cccc(F)c1-c1cc2c(cn1)NC(=O)/C2=C(/C)Nc1cnn(C[C@H](C)O)c1`
(A) > 7.30

(Q) Same for `COc1cc2c(cc1Nc1ncc3ccc(-c4ccc(CC#N)cc4)cc3n1)CNCC2`
(A) 7.09
